Documented abundance fitness across a set of variants
B1: Pre-mRNA-processing factor 40 homolog B, residues 274 to 332; numbered along this chain, Q6NWY9 (parent)
chain: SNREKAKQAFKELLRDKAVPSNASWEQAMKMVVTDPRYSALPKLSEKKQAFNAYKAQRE

Variants of: B1
Assay: abundance fitness (aPCA) (normalised: wild type 0, dead -1); higher = more abundant; growth selection in yeast, the domain comes from the species named
Conditions: Homo sapiens
Respond numerically, and do not add a unit to the figure.

E26Q
-0.412
E59G
-0.212
M31N
-0.364
A9R
-0.364
V19T
-0.231

Recorded abundance fitness for A23R , please?
-0.506

Recorded abundance fitness for A28H , please?
-0.583

Recorded abundance fitness for K7N , please?
-0.074
